# Test system: MYB mRNA
# assayRemarks: RT-qPCR splicing assay, MYB mRNA canonical (CJ) and alternative (AJ) junction
# Format: cell-based, human
# setupConditions: Homo sapiens, RT-qPCR, MYB alternative junction mRNA increase; read-out: MYB AJ (increase in alternative junction mRNA, AC50)
endpointLabel: AC50

molecule="COc1cc(-c2ncc3cc(N4C[C@H](C)N[C@@H](C)C4)ccc3n2)cn2cc(C)nc12 [Compound 816]" endpointlabel=AC50 measuredresult="< 100 nM"
molecule="C[C@@H]1CN(c2cc(F)c3nc(-c4cc(F)c5nn(C)cc5c4)ccc3c2)C[C@H](C)N1 [Compound 758]" endpointlabel=AC50 measuredresult="100 to 1000 nM"
molecule="Cc1cn2cc(-c3ncc4cc(N5C[C@@H](C)NC6(CC6)C5)ccc4n3)cc(F)c2n1 (single isomer, unassigned) [Compound 815]" endpointlabel=AC50 measuredresult="100 to 1000 nM"
molecule="COc1cc(-c2ncc3cc(N4C[C@@H](C)N[C@@H](C)C4)ccc3n2)cn2cc(C)nc12 [Compound 830]" endpointlabel=AC50 measuredresult="100 to 1000 nM"
